EXPERIMENTAL SYSTEM: PARG (Homo sapiens (Human))
Sequence (Q86W56 whole entry): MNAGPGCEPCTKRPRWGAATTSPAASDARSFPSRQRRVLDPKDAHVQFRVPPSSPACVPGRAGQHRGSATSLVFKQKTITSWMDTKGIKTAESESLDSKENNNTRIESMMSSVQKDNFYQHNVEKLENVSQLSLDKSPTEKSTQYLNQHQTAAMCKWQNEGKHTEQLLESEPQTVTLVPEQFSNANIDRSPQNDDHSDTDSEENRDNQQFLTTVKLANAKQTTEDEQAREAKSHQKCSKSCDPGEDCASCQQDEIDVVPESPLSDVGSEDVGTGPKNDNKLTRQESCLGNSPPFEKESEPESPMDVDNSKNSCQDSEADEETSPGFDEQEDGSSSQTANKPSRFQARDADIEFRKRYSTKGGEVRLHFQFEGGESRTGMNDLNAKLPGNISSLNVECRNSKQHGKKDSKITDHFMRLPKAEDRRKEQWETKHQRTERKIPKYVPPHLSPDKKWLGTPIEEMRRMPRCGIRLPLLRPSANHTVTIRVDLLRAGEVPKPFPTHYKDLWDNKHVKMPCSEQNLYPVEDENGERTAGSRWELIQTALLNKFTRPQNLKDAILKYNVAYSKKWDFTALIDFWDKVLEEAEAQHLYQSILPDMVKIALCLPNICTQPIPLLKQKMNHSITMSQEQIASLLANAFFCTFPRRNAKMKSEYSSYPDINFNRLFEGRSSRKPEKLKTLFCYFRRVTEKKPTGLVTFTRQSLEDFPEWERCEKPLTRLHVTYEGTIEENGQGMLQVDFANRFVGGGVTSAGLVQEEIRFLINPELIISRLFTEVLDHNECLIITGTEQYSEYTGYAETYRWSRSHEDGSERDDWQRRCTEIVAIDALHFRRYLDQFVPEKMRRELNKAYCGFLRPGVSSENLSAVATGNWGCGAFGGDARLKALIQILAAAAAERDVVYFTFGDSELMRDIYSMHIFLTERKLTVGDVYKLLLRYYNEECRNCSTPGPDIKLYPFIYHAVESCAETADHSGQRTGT
PROTOCOL DESCRIPTION: PARG cell inhibition assay (PAR staining after H2O2)
Format: cell-based
CONDITION INFO: UWB1.289 cells; value in brackets
Mark YES only for IC50 values smaller than 10 nM; exact matches and larger values are NO.

COMPOUND | CLASS NAME
CC(C)C(=O)N1CCN(c2cc(S(=O)(=O)NC3(C)CC3)cc3c(-c4nnc(C(F)F)s4)n[nH]c23)CC1 | YES
Cc1cc(Cn2c(=O)n(Cc3cnc(C)s3)c(=O)c3cc(S(=O)(=O)NC4(C)CC4)ccc32)n(C)n1 [PDD00017273, reference compound] | NO
CC(C)C(=O)N1CCN(c2cc(S(=O)(=O)NC3(C#N)CC3)cc3c(-c4nnc(C(F)F)s4)nn(C)c23)CC1 | YES
CC(C)C(=O)N1CCN(c2cc(S(=O)(=O)NC3(C)CC3)cc3c(-c4nnc(C(F)F)s4)nn(C)c23)CC1 | YES
Cc1nc(C)c(Cn2nc(-c3nnc(C(F)F)s3)c3cc(S(=O)(=O)NC4(C)CC4)ccc32)s1 [compound 1, reference compound] | NO

----------
EXPERIMENTAL SYSTEM: PARG (389-976) (Homo sapiens (Human), UniProt Q86W56)
Sequence (Q86W56 389-976): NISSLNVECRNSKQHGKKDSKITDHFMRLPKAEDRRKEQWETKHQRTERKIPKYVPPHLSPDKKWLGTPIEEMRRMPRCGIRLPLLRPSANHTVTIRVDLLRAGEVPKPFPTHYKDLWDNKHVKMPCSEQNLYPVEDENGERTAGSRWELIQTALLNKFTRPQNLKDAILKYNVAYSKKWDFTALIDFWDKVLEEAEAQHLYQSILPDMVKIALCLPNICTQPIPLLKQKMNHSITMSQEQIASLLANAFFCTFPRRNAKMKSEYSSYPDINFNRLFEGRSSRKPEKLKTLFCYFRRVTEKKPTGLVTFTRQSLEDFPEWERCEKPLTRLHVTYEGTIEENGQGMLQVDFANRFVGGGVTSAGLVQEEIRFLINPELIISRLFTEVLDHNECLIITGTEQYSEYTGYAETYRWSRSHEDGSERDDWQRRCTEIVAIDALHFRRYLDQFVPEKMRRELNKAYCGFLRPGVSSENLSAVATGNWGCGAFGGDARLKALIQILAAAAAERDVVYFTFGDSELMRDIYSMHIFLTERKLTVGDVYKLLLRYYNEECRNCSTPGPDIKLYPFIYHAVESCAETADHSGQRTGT
PROTOCOL DESCRIPTION: PARG enzyme inhibition assay (TR-FRET)
Assay type: biochemical
CONDITION INFO: Table 2, value in brackets
Method: PARG Enzyme Inhibition Assay PARG in vitro assays were conducted in standard 384-well plates in a total volume of 15 μL.
This section presents compounds with their documented IC50 values.

STRUCTURE SMILES | IC50
CC(C)C(=O)N1CCN(c2cc(S(=O)(=O)NC3(C#N)CC3)cc3c(-c4nnc(C(F)F)s4)nn(C)c23)CC1 | 0.6 nM
CC(C)C(=O)N1CCN(c2cc(S(=O)(=O)NC3(C#N)CC3)cc3c(-c4nnc(C(F)F)s4)n[nH]c23)CC1 | 0.9 nM
Cn1nc(-c2nnc(C(F)F)s2)c2cc(S(=O)(=O)NC3(C#N)CC3)cc(N3CCC4(CC3)COC4)c21 | 0.9 nM
